experimental.protocol: photoluminescence quantum yield (fraction); solvent given as SMILES
experimental.setup: in ClCCl
Catalogue of photoluminescence quantum yield readings, one per entry.

[
  {
    "smiles.text": "CC(C)(C)c1cc(-c2ccc(-c3cccs3)s2)c2c(c1)c1cc(C(C)(C)C)cc(-c3ccc(-c4cccs4)s3)c1n2-c1ccc(-c2cccs2)s1",
    "photoluminescence quantum yield": 0.092
  },
  {
    "smiles.text": "COC1=[N+]2C(=C(c3ccccc3)c3cc(SC#N)c(OC)n3[B-]2(F)F)C=C1SC#N",
    "photoluminescence quantum yield": 0.17
  },
  {
    "smiles.text": "COc1ccc(/C=C/C2=CC(/C=C/c3ccc(OC)c4ccccc34)=[O+][B-](F)(F)O2)c2ccccc12",
    "photoluminescence quantum yield": 0.39
  },
  {
    "smiles.text": "CCn1c2cc(-c3ccc(-c4cccs4)s3)ccc2c2ccc(-c3ccc(-c4cccs4)s3)cc21",
    "photoluminescence quantum yield": 0.482
  }
]

---

experimental.protocol: photoluminescence quantum yield (fraction); solvent given as SMILES
experimental.setup: in C1COCCO1

[
  {
    "smiles.text": "CCN(CC)c1ccc2cc(/C=C(\\C#N)c3nc4ccccc4s3)c(=O)oc2c1",
    "photoluminescence quantum yield": 0.0043
  },
  {
    "smiles.text": "CN(C)c1ccc(C2=Cc3ccc4ccccc4[n+]3[B-](F)(F)O2)cc1",
    "photoluminescence quantum yield": 0.735
  },
  {
    "smiles.text": "CCN(CC)c1ccc2c(C#N)c(/C=C(\\C#N)c3nc4ccccc4o3)c(=O)oc2c1",
    "photoluminescence quantum yield": 0.0328
  }
]

---

experimental.protocol: photoluminescence quantum yield (fraction); solvent given as SMILES
experimental.setup: in CC#N
Catalogue of photoluminescence quantum yield readings, one per entry.
attribute.measured: photoluminescence quantum yield

[
  {
    "molecule": "O=c1oc2ccc3ccccc3c2nc1-c1ccccc1",
    "attribute.measured": "photoluminescence quantum yield",
    "measurement": 0.56
  },
  {
    "molecule": "Cc1cc2nc3[nH]c(=O)[nH]c(=O)c3nc2cc1C",
    "attribute.measured": "photoluminescence quantum yield",
    "measurement": 0.028
  },
  {
    "molecule": "Oc1cccc2c(C3(O)C4CC5CC(C4)CC3C5)cccc12 (stereo not drawn)",
    "attribute.measured": "photoluminescence quantum yield",
    "measurement": 0.33
  }
]

---

experimental.protocol: photoluminescence quantum yield (fraction); solvent given as SMILES
experimental.setup: in ClCCl
attribute.measured: photoluminescence quantum yield

[
  {
    "smiles.text": "CCCCCCOc1cc(/C=C/c2cc(OCCCCCC)c(/C=C/c3cc(OCCCCCC)c(C=C4C(=O)c5ccccc5C4=O)cc3OCCCCCC)cc2OCCCCCC)c(OCCCCCC)cc1C=C1C(=O)c2ccccc2C1=O",
    "measurement": 0.0468
  },
  {
    "smiles.text": "CC(C)(C)c1ccc2c(c1)sc1[n+]2[B-](F)(F)n2c(c3cccc4cccc2c43)=C1C#N",
    "measurement": 0.7
  },
  {
    "smiles.text": "O=c1oc2ccccc2c2c1c(=O)oc1ccc3ccc(O)cc3c12",
    "measurement": 0.22
  },
  {
    "smiles.text": "CC(C)(C)c1ccc(-c2cc3c(-c4ccc(C(C)(C)C)cc4)c4cccc5c(-c6ccc(C(C)(C)C)cc6)cc6c(-c7ccc(C(C)(C)C)cc7)c7cccc2c7c3c6c54)cc1",
    "measurement": 0.27
  },
  {
    "smiles.text": "CC(=O)c1c2c(cc3c(N(C)C)cccc13)CCC2",
    "measurement": 0.6
  }
]
